- Tested on: SN12C renal
- ASSAY PROCEDURE: NCI tumour cell line growth inhibition, 48 h; in the data active means GI50 below about 0.43 µM; inactive means the rest
Classes used: true (1) (active), false (0) (inactive)

{"COMPOUND": "Cc1ccc(S(=O)(=O)Oc2ccc3c4c(c(=O)oc3c2)CCCCCC4)cc1", "LABEL": "false (0)"}
{"COMPOUND": "CN1CCN(Cc2c[nH]c3c2C(=O)c2c(c(O)c4ccccc4c2O)C3=O)CC1", "LABEL": "false (0)"}
{"COMPOUND": "CN(C)c1ccc(Nc2c3ccccc3nc3ccccc23)cc1", "LABEL": "false (0)"}
{"COMPOUND": "COC(C)(C)[C@@H](O)[C@H](O)C[C@H](C)C1=C2CC[C@@H]3[C@@]4(C)CC[C@@H](OC(C)=O)C(C)(C)[C@@H]4C[C@@H](OC4OC(COC(C)=O)C(O)C(O)C4O)[C@@]3(C)[C@]2(C)CC1 (stereo not given in full)", "LABEL": "false (0)"}
{"COMPOUND": "C/C(=C\\c1ccn(-c2ccccc2N)n1)[C@@H]1C[C@@H]2O[C@]2(C)CCC[C@H](C)[C@H](O)[C@@H](C)C(=O)C(C)(C)[C@@H](O)CC(=O)O1", "LABEL": "true (1)"}

---

- Tested on: COLO 205 colon
- ASSAY PROCEDURE: NCI tumour cell line growth inhibition, 48 h

{"COMPOUND": "C=C(C(=O)O[C@H]1C/C(C)=C/CC/C(CO)=C/[C@H]2C(=O)OC(=C)[C@H]12)C(O)CO (stereo not given in full)", "TGI": "13.4 µM"}
{"COMPOUND": "C#CC[C@@]12CC(=O)C[C@@H]1CCC1(C2)OCCO1 (tested in a mixture with another compound)", "TGI": "> 100 µM"}
{"COMPOUND": "CC(C)C1CO[C@]2(C)CCC(=O)N12 (stereo not given in full)", "TGI": "> 100 µM"}
{"COMPOUND": "Cn1nc2ccc(Nc3cc(=O)[nH]c4ccc5nn(C)nc5c34)cc2n1", "TGI": "> 100 µM"}
{"COMPOUND": "OCCCCC#Cc1ccccc1C#Cc1ccc(O)cc1", "TGI": "45.9 µM"}
{"COMPOUND": "O=P1(N2CCOCC2)OCCO1", "TGI": "> 100 µM"}
{"COMPOUND": "Cn1cnc(N)c(N=O)c1=O", "TGI": "> 10 µM"}
{"COMPOUND": "C=CCn1c(=S)sc2c(C(=O)OCC)c3c(C)cc(C)cn3c2c1=O", "TGI": "> 100 µM"}
{"COMPOUND": "O=S(=O)(NC1CCCCC1)c1ccc2c(c1)OCCOCCOCCOCCO2", "TGI": "> 100 µM"}
{"COMPOUND": "CCC(=O)N1C/C(=C/c2ccc(Cl)cc2)C(=O)/C(=C/c2ccc(Cl)cc2)C1", "TGI": "1.95 µM"}

---

Below, each entry is listed with its recorded TGI.
- System: SF-268 CNS
- ASSAY PROCEDURE: NCI tumour cell line growth inhibition, 48 h
PROPERTY MEASURED: TGI

{"MOLECULE": "COC(=O)c1cc(-c2ccccc2)[nH]c1N/N=C/c1c(Cl)cccc1Cl", "RESULT VALUE": "8.25 µM"}
{"MOLECULE": "Cc1ccc(S(=O)(=O)N2C[C@@H]3CC[C@]4(CO[Si](C)(C)C(C)(C)C)N[C@@H](c5ccccc5)[C@H]2[C@H]34)cc1", "RESULT VALUE": "> 100 µM"}
{"MOLECULE": "Cc1ccc(/C=C/c2c(C(=O)/C=C/c3ccccc3)c(C)nc3ccccc23)cc1", "RESULT VALUE": "5.42 µM"}
{"MOLECULE": "COC(=O)C1CC2(C)C=CC1N(C(=O)OCc1ccccc1)C2 (centres undefined)", "RESULT VALUE": "> 100 µM"}
{"MOLECULE": "COc1ccc(C2C3=C(N=C4SC(C(C)=O)=C(C)N42)c2ccccc2CC3)cc1 (centres undefined)", "RESULT VALUE": "> 100 µM"}
{"MOLECULE": "COc1ccccc1OCC(COC(=O)Nc1ccccc1)OC(=O)Nc1ccccc1 (centres undefined)", "RESULT VALUE": "> 100 µM"}
{"MOLECULE": "C[C@]12CC[C@H]3[C@@H](CCC4=CC(=O)C=C[C@@]43OC(=O)C(F)(F)F)[C@@H]1CCC2=O", "RESULT VALUE": "> 100 µM"}
{"MOLECULE": "C/C(CC(=O)NCCc1ccccc1)=N\\NS(=O)(=O)c1ccc(C)cc1", "RESULT VALUE": "> 100 µM"}
{"MOLECULE": "C[C@H]1[C@H](C)N1CC(O)Cn1ccnc1[N+](=O)[O-] (some centres undefined)", "RESULT VALUE": "> 100 µM"}
{"MOLECULE": "O=C(O)CCC(=O)OCN1C(=O)C2C3C=CC(C2C1=O)C1C2C(=O)N(COC(=O)CCC(=O)O)C(=O)C2C31 (centres undefined)", "RESULT VALUE": "> 100 µM"}
{"MOLECULE": "O=S(=O)(NC1CCCCC1)c1ccc2c(c1)OCCOCCOCCOCCO2", "RESULT VALUE": "> 100 µM"}
{"MOLECULE": "OC1(c2ccccc2)C2CC=CC2C1(c1ccccc1)c1ccccc1 (centres undefined)", "RESULT VALUE": "> 100 µM"}
{"MOLECULE": "O=C1CCCNn2c(nc3ncccc3c2=O)N1", "RESULT VALUE": "> 100 µM"}
{"MOLECULE": "COC(C)(C)[C@@H](O)[C@H](O)C[C@H](C)C1=C2CC[C@@H]3[C@@]4(C)CC[C@@H](OC(C)=O)C(C)(C)[C@@H]4C[C@@H](OC4OC(COC(C)=O)C(O)C(O)C4O)[C@@]3(C)[C@]2(C)CC1 (some centres undefined)", "RESULT VALUE": "25.9 µM"}
{"MOLECULE": "COc1cc2ccc(C(=O)NCCCNC(=O)c3ccc4cc(OC)c(OC)cc4c3)cc2cc1OC", "RESULT VALUE": "> 100 µM"}
{"MOLECULE": "CC(C)(C)OC(=O)N/C(C=O)=C\\C1CCCCC1", "RESULT VALUE": "52.3 µM"}
{"MOLECULE": "O=C1C2C(C(=O)N1c1ccccc1)C1c3ccccc3C2C2C(=O)N(c3ccccc3)C(=O)C21 (centres undefined)", "RESULT VALUE": "> 100 µM"}
{"MOLECULE": "O=S(=O)(O)O", "RESULT VALUE": "1980 µM"}
{"MOLECULE": "CO/N=C(\\COc1ccc2c(=O)c3ccccc3oc2c1)c1ccccc1", "RESULT VALUE": "> 100 µM"}

---

- System: MOLT-4 leukemia
- ASSAY PROCEDURE: NCI tumour cell line growth inhibition, 48 h
PROPERTY MEASURED: TGI (µM)

{"COMPOUND": "COc1ccc2c(c1)nc(NNC(=O)c1cnccn1)c1cccn12", "TARGET SYSTEM": "MOLT-4 leukemia", "PROPERTY MEASURED": "TGI", "DISPLAY UNIT": "µM", "VALUE QUALIFIER": ">", "RESULT VALUE": 85.5}
{"COMPOUND": "C=C(C(=O)O[C@H]1C/C(C)=C/CC/C(CO)=C/[C@H]2C(=O)OC(=C)[C@H]12)C(O)CO (stereo partly drawn)", "TARGET SYSTEM": "MOLT-4 leukemia", "PROPERTY MEASURED": "TGI", "DISPLAY UNIT": "µM", "VALUE QUALIFIER": "=", "RESULT VALUE": 13.2}
{"COMPOUND": "C=CC(=O)N1C/C(=C\\c2ccc(Cl)c(Cl)c2)C(=O)/C(=C/c2ccc(Cl)c(Cl)c2)C1", "TARGET SYSTEM": "MOLT-4 leukemia", "PROPERTY MEASURED": "TGI", "DISPLAY UNIT": "µM", "VALUE QUALIFIER": "=", "RESULT VALUE": 0.38}
{"COMPOUND": "Fc1ccc(-c2ncn(C3CCNCC3)c2-c2ccnc(Oc3ccc4c(c3)OCO4)n2)cc1", "TARGET SYSTEM": "MOLT-4 leukemia", "PROPERTY MEASURED": "TGI", "DISPLAY UNIT": "µM", "VALUE QUALIFIER": ">", "RESULT VALUE": 25}
{"COMPOUND": "O=C(c1ccccc1)c1ccc2nc(-c3c(Cl)c(Cl)c(Cl)c(Cl)c3-c3nnc(-c4ccccc4)o3)[nH]c2c1", "TARGET SYSTEM": "MOLT-4 leukemia", "PROPERTY MEASURED": "TGI", "DISPLAY UNIT": "µM", "VALUE QUALIFIER": ">", "RESULT VALUE": 100}
{"COMPOUND": "CC[C@@]1(O)C(=O)OCc2c1cc1n(c2=O)Cc2c-1nc1ccc(O)cc1c2[Si](C)(C)C(C)(C)C", "TARGET SYSTEM": "MOLT-4 leukemia", "PROPERTY MEASURED": "TGI", "DISPLAY UNIT": "µM", "VALUE QUALIFIER": "=", "RESULT VALUE": 0.106}
{"COMPOUND": "C=C(C)[C@@H]1CCC=C2CC[C@]3(C)[C@H](CC[C@@H]4[C@@]5(C)CCCNC(C)(C)[C@@H]5CC[C@]43C)[C@H]21", "TARGET SYSTEM": "MOLT-4 leukemia", "PROPERTY MEASURED": "TGI", "DISPLAY UNIT": "µM", "VALUE QUALIFIER": "=", "RESULT VALUE": 4.09}
{"COMPOUND": "C=C1C(=O)O[C@H]2[C@H]1CC/C(COC(=O)CCCCCC(=O)OC/C1=C/CC[C@@]3(C)O[C@H]3[C@H]3OC(=O)C(=C)[C@@H]3CC1)=C\\CC[C@@]1(C)O[C@@H]21", "TARGET SYSTEM": "MOLT-4 leukemia", "PROPERTY MEASURED": "TGI", "DISPLAY UNIT": "µM", "VALUE QUALIFIER": "=", "RESULT VALUE": 4.1}
